Attribution: paper PMC6631349

TGT: UniProt:P22309
Sequence (P22309 26-533): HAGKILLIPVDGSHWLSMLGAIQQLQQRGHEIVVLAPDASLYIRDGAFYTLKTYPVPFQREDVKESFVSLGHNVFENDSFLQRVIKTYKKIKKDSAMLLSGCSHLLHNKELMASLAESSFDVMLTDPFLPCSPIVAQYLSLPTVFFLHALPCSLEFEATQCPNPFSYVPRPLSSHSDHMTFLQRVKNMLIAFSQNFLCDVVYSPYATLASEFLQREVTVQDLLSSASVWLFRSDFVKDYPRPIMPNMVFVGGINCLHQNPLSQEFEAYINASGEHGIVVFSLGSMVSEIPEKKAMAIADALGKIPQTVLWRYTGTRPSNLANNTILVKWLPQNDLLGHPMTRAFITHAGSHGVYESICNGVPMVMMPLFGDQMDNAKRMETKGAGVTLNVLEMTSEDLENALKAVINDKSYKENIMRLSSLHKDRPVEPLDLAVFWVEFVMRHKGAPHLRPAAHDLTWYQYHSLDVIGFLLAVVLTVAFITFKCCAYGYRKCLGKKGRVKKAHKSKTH
EXPERIMENTAL_DETAILS: UGT1A1 supersomes-catalyzed 4-MU glucuronidation inhibition
PARTICULARS: 50 μM PC components; recombinant human UGT; mean of triplicate
Listed next: entries and their corresponding residual activity 1A1.

See these solved cases before continuing.
>>> print(df.to_string())
                                   compound  obs_value
0  CCCCCCCCCCCCCCCC(=O)OC[C@H](COP(=O)([O-])OCC[N+](C)(C)C)OC(=O)CCCCCCCCCCCCCCC [PC 16:0, 16:0]     192.6%
1  CCCCCCCCCCCCCC(=O)OC[C@H](COP(=O)([O-])OCC[N+](C)(C)C)OC(=O)CCCCCCCCCCCCC [PC 14:0, 14:0]     208.9%
2  CCCCCCCCCCCCCCCCCCCC(=O)OC[C@H](COP(=O)([O-])OCC[N+](C)(C)C)OC(=O)CCCCCCCCCCCCCCCCCCC [PC 20:0, 20:0]     202.3%

Reported residual activity 1A1 ( CCCCCCCCCCCCC(=O)OC[C@H](COP(=O)([O-])OCC[N+](C)(C)C)OC(=O)CCCCCCCCCCCC [PC 13:0, 13:0] ) = 201.1%

For this compound ( CCCCCCCCCCCCCCCCC(=O)OC[C@H](COP(=O)([O-])OCC[N+](C)(C)C)OC(=O)CCCCCCCCCCCCCCCC [PC 17:0, 17:0] ), measured residual activity 1A1 is 192.3%

residual activity 1A1 reported for this compound CCCCCCCCCCCCCCCCCCCCCCC(=O)OC[C@H](COP(=O)([O-])OCC[N+](C)(C)C)OC(=O)CCCCCCCCCCCCCCCCCCCCCC [PC 23:0, 23:0] : 133.7%

====

TGT: UGT1A8 (Homo sapiens, UniProt Q9HAW9)
Sequence (Q9HAW9 26-530): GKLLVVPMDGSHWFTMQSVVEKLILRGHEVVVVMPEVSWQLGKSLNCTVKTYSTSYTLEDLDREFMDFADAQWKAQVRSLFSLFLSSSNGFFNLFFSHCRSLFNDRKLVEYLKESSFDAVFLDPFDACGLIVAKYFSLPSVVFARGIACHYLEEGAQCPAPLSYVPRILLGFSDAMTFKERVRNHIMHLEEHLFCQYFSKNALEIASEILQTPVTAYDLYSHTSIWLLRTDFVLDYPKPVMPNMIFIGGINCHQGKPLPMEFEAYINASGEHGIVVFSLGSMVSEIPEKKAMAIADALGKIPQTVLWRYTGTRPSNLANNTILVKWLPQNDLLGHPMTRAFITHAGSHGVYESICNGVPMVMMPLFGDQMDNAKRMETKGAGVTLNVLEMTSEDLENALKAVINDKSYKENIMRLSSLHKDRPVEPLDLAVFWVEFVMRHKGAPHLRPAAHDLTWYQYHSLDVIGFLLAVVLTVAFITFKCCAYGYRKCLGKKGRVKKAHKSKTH
PARTICULARS: 50 μM PC components; recombinant human UGT; mean of triplicate
Quick reference for residual activity 1A8 among some compounds
// return numeric value only (unit: %, not printed)

Before answering, review these 8 worked examples.
>>> print(df.to_string())
                                   compound                                    tgt      recorded_endpoint  measurement_unit  obs_value
0  CCCCCCCCCCCCCCCCCCCCC(=O)OC[C@H](COP(=O)([O-])OCC[N+](C)(C)C)OC(=O)CCCCCCCCCCCCCCCCCCCC [PC 21:0, 21:0]  UGT1A8 (Homo sapiens, UniProt Q9HAW9)  residual activity 1A8                 %       36.9
1  CCCCCCCCCCCCCCCCCCCCCCC(=O)OC[C@H](COP(=O)([O-])OCC[N+](C)(C)C)OC(=O)CCCCCCCCCCCCCCCCCCCCCC [PC 23:0, 23:0]  UGT1A8 (Homo sapiens, UniProt Q9HAW9)  residual activity 1A8                 %       93.5
2  CCCCCCC(=O)OC[C@H](COP(=O)([O-])OCC[N+](C)(C)C)OC(=O)CCCCCC [PC 7:0, 7:0]  UGT1A8 (Homo sapiens, UniProt Q9HAW9)  residual activity 1A8                 %      106.1
3  CCCCCCCC(=O)OC[C@H](COP(=O)([O-])OCC[N+](C)(C)C)OC(=O)CCCCCCC [PC 8:0, 8:0]  UGT1A8 (Homo sapiens, UniProt Q9HAW9)  residual activity 1A8                 %       78.3
4  CCCCCCCCCCCCCCCC(=O)OC[C@H](COP(=O)([O-])OCC[N+](C)(C)C)OC(=O)CCCCCCCCCCCCCCC [PC 16:0, 16:0]  UGT1A8 (Homo sapiens, UniProt Q9HAW9)  residual activity 1A8                 %      107.6
5  CC/C=C\C/C=C\C/C=C\C/C=C\C/C=C\C/C=C\CCC(=O)O[C@H](COC(=O)CCCCCCCCCCCCCCCCC)COP(=O)([O-])OCC[N+](C)(C)C [PC 18:0, 22:6]  UGT1A8 (Homo sapiens, UniProt Q9HAW9)  residual activity 1A8                 %      116.1
6  CCCCCCCCCCCCCCCCC(=O)OC[C@H](COP(=O)([O-])OCC[N+](C)(C)C)OC(=O)CCCCCCCCCCCCCCCC [PC 17:0, 17:0]  UGT1A8 (Homo sapiens, UniProt Q9HAW9)  residual activity 1A8                 %       92.1
7  CCCCCCCCCCCCCCCCCCC(=O)OC[C@H](COP(=O)([O-])OCC[N+](C)(C)C)OC(=O)CCCCCCCCCCCCCCCCCC [PC 19:0, 19:0]  UGT1A8 (Homo sapiens, UniProt Q9HAW9)  residual activity 1A8                 %       60.6

Turning now to a further compound:
Please fill in: residual activity 1A8 reported for CCCCCCCCCCCCCC(=O)OC[C@H](COP(=O)([O-])OCC[N+](C)(C)C)OC(=O)CCCCCCCCCCCCC [PC 14:0, 14:0] = 110.2
